- System: Calu-3
- ASSAY_TEXT: cell viability relative to DMSO; higher = less toxic
- SETUP_CONDITIONS: 72 h; 1 nM
Param label: returns 1.0 when cell viability < 90%, returns 0.0 otherwise, including exact equality.

{"MOLECULE": "COC1=C[C@@H]2[C@@H]3Cc4ccc(OC)c(O)c4[C@]2(CCN3C)CC1=O", "CLASS": 0.0}
{"MOLECULE": "CCCC(C)C1(CC)C(=O)NC(=S)NC1=O (stereo not drawn)", "CLASS": 0.0}
{"MOLECULE": "COc1nc(N)nc2c1ncn2[C@@H]1O[C@H](CO)[C@@H](O)[C@@H]1O", "CLASS": 0.0}
{"MOLECULE": "CC1(C)CC(=O)c2c(C(F)(F)F)nn(-c3ccc(C(N)=O)c(N[C@H]4CC[C@H](OC(=O)CN)CC4)c3)c2C1", "CLASS": 1.0}
{"MOLECULE": "O=C(Nc1ccccc1)Nc1ccc(-c2ccc(C(=O)[C@@H]3CCC[C@@H]3C(=O)O)cc2)cc1", "CLASS": 0.0}
{"MOLECULE": "C=CC(=O)Nc1cc(Nc2nccc(-c3c[nH]c4ccccc34)n2)c(OC)cc1N(C)CCN(C)C", "CLASS": 1.0}

[in] Is the reported cell viability for `COc1cc(/C=C2\CCC/C(=C\c3ccc(O)c(OC)c3)C2=O)ccc1O` strictly below 90%?
[out] 0.0

[in] cell viability under 90%? Item: `O=C1c2cccc(O)c2C(=O)c2c(O)cc(CO)cc21`
[out] 0.0

----------
- Tested on: U2OS
- ASSAY_TEXT: cell viability relative to DMSO; higher = less toxic
- SETUP_CONDITIONS: 72 h; 1000 nM
Hi there, I'd appreciate the recorded cell viability for every entry that follows.
Give bare numbers, in %.

Solved entries (count: 6):
{"COMPOUND": "CN1CCN(C(=O)C2C(C(=O)O)[C@H]3CC[C@@H]2O3)CC1 (stereo partly specified) [LB-100]", "UNIT_STRING": "%", "cell viability": 96.2}
{"COMPOUND": "CS(=O)(=O)OCOS(C)(=O)=O [MDMS]", "UNIT_STRING": "%", "cell viability": 106}
{"COMPOUND": "CCOC(=O)[C@@H](N)Cc1ccc(O)c(O)c1 [etilevodopa]", "UNIT_STRING": "%", "cell viability": 96.3}
{"COMPOUND": "NS(=O)(=O)c1cccc2c1c([N+](=O)[O-])cc1nc(O)c(O)nc12 [NBQX]", "UNIT_STRING": "%", "cell viability": 103}
{"COMPOUND": "CC(C)(Sc1ccc(CCN(CCCCC2CCCCC2)C(=O)NC2CCCCC2)cc1)C(=O)O [GW-7647]", "UNIT_STRING": "%", "cell viability": 96.2}
{"COMPOUND": "OC(CCN1CCCCC1)(c1ccccc1)C1CCCCC1 (stereo unspecified) [trihexyphenidyl]", "UNIT_STRING": "%", "cell viability": 98.1}

Report cell viability for every entry below.
1. CC(C)NCC(O)c1ccc(N)c(C#N)c1 (stereo unspecified) [cimaterol]
2. COc1ccc(CC2NCCc3c2[nH]c2ccc(C)cc32)c(Cl)c1OC (stereo unspecified)
3. O=C(C1CC1)N1CC[C@@H](Cc2n[nH]c(=O)n2-c2ccc(-c3ccc4occc4c3)cc2)C1
4. NS(=O)(=O)Cc1noc2ccccc12 [zonisamide]
5. Nc1c(S(=O)(=O)O)cc(Nc2cccc3ccccc23)c2c1C(=O)c1ccccc1C2=O

[out]
97
101
97.3
98.4
95.4
